tested on: OVCAR-3; experiment: NCI tumour cell line growth inhibition, 48 h
The source made the active and inactive calls. Rule as the data show it: active = GI50 up to about 1.1 µM and inactive = higher.
API: response.call in 1.0 (active), 0.0 (inactive)

compound	classAssignment
C1=CC(=[N+]2N=C(c3ccccc3)CC2c2ccccc2)C=CC1=C1SC(c2ccccc2)(c2ccccc2)c2ccccc21.[O-][Cl+3]([O-])([O-])[O-] (configuration not stated)	0.0
COc1cc2c(cc1O)C(Cc1ccc(OCc3ccccc3)c(OCc3ccccc3)c1)N(C(=O)NCCc1ccccc1)CC2 (configuration not stated)	0.0

Hi team, can someone confirm the assay call for O=C1C(Cl)=C(Cl)C(=O)N1c1ccccc1Cl ?
0.0

Per the records of this test, what outcome belongs to COc1cc(N(CCC#N)CCC#N)ccc1C(=N/NC(=O)c1cc(Br)ccc1O)/N=N/c1ccccc1 ?
0.0

Could you kindly confirm the outcome this assay logged for Cc1c2c(OCC3CCCCO3)nn(C)c(=O)c2c(C)n1-c1ccccc1 (configuration not stated) ?
0.0

Hello, I am checking results. What call was entered for O=C(O)CCC(=O)c1ccc2sc3ccccc3c2c1 ?
0.0

Assay outcome for Cc1c(-c2coc(-c3ccccc3)n2)c(=O)n(-c2ccccc2)n1C : what was it?
0.0

So what was the verdict on COc1ccc(NC(=S)c2ccoc2C)cc1CC(=O)OC(C)C in this test?
0.0

I would be grateful if you could indicate the recorded call for O=C1Nc2ccccc2NC1C1OC(c2ccccc2)=CC1=O (configuration not stated) .
0.0
